Target: T1, recombinant biotinylated CD71 extracellular domain (Sino Biologics) with an N-terminal 6His tag (human, UniProt P02786 89-760, biotinylated (sites not given))
T1 construct: extracellular domain; also called hCD71; huCD71
T1 sequence (P02786 other isoform, or with tags, fused parts or gaps): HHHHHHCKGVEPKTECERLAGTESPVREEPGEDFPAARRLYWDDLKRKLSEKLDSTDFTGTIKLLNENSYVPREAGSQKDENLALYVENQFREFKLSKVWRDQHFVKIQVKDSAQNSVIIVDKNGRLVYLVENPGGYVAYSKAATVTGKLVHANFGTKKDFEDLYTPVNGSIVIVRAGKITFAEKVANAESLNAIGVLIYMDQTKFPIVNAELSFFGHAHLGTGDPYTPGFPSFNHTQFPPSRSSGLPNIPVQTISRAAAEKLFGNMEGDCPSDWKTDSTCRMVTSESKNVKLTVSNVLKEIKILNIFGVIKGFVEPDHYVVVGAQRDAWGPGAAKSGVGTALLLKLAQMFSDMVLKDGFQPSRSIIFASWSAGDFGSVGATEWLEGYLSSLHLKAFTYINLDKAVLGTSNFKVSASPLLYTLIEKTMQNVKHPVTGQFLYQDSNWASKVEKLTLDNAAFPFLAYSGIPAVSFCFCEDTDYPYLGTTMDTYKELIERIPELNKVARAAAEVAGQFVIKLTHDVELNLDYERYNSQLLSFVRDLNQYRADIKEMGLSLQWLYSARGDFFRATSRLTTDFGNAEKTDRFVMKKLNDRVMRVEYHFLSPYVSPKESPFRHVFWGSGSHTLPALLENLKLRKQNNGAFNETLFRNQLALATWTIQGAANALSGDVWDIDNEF
Test: screening ELISA, ratio
measurement_label: hCD71:HSA

// worked examples, hCD71:HSA included
binder="SEQ ID NO 242 (designed binder, FN3 domain) MLPAPKNLVVSRVTEDSARLSWTAPDAAFDSFPIKYLEWWSWGEAIVLTVPGSERSYDLTGLKPGTEYRVPISGVKGGGMSGPLSAIFTT" assay_result=178
binder="SEQ ID NO 159 (designed binder, FN3 domain) MLPAPKNLVVSRVTEDSARLSWTAPDAAFDSFLIPYAETSPSGEAIVLTVPGSERSYDLTGLKPGTEYSVLIHGVKGGRNSDPLSAIFTT" assay_result=1320
binder="SEQ ID NO 161 (designed binder, FN3 domain) MLPAPKNLVVSRVTEDSARLSWTAPDAAFDSFTIRYWEELPTGEAIVLTVPGSERSYDLTGLKPGTEYTVEIFGVKGGYLSRPLSAISTT" assay_result=240
binder="SEQ ID NO 175 (designed binder, FN3 domain) MLPAPKNLVVSRVTEDSARLSWTAPDAAFDSFFIGYLEPQPPGEAIVLTVPGSERSYDLTGLKPGTEYSVVIQGVKGGFPSDPLSAIFTT" assay_result=2220
binder="SEQ ID NO 215 (designed binder, FN3 domain) MLPAPKNLVVSRVTEDSARLSWTAPDAAFDSFLIPYAETSPTGEAIVLTVPGSERSYDLTGLKPGTEYSVLIHGVKGGYPSSPLSAIFTT" assay_result=1210
binder="SEQ ID NO 228 (designed binder, FN3 domain) MLPAPKNLVVSRVTEDSARLSWTAPDAAFDSFEIYYVEWSEAGEAIVLTVPGSERSYDLTGLKPGTEYRVEIRGVKGGSWSSPLSAIFTT" assay_result=1060
binder="SEQ ID NO 282 (designed binder, FN3 domain) MLPAPKNLVVSRVTEDSARLSWTAPDAAFDSFAIVYHEPRPDGEAIVLTVPGSERSYDLTGLKPGTEYEVVILGVKGGVHSYPLSAIFTT" assay_result=206

1 = SEQ ID NO 104 (designed binder, FN3 domain) MLPAPKNLVVSHVTEDSARLSWTAPDAAFDSFDIEYYELVGSGEAIVLTVPGSERSYDLTGLKPGTEYYVAIYGVKGGYLSRPLSAIFTT
2 = SEQ ID NO 292 (designed binder, FN3 domain) MLPAPKNLVVSRVTEDSARLSWTAPDAAFDSFDIAYWELTPSGEAIELLVPGSERSYDLTGLKPGTEYRVDIIGVKGGFISEPLGATFTT
Enquiry: When 1 and 2 are compared, which has the higher number for hCD71:HSA? Could you answer with the label of the item you picked?
Return: 1
(1: 2100, 2: 296)
